# system-name: T1, human CD33 (human, UniProt P20138 18-364)
# T1 construct: CD33 on human primary dendritic cells, macrophages, monocytes and T cells and on CHO cells expressing recombinant human CD33; also called Siglec-3; hCD33
# T1 sequence (P20138 18-364): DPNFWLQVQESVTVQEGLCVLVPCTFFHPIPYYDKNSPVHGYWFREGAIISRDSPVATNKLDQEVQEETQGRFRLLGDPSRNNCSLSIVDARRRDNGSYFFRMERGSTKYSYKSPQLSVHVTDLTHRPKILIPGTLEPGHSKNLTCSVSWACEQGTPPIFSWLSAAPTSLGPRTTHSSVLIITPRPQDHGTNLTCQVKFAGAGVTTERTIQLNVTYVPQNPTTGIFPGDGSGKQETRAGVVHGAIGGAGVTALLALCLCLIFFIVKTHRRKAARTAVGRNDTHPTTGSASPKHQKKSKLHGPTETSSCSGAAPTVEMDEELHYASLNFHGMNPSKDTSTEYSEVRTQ
# assay-method-text: flow cytometry, human primary monocytes;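 further: binding of anti-CD33 antibodies at 10 ug/ml to human primary monocytes, 1 h on ice, detected by PE-labelled secondary antibody, flow cytometry readout as mean fluorescence intensity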
# Set-up: reference not given here
Here the recorded Monocyte MFI is given for each entry.
Reply with the value as a number alone.

- C-65 (antibody, V domains shown, human IgG1) VH: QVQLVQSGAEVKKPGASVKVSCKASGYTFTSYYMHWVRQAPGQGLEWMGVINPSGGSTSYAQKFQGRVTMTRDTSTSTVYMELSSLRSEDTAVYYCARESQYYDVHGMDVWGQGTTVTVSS VL: DIQMTQSPSSLSASVGDRVTITCRASQSISSYLNWYQQKPGKAPKLLIYAASSLQSGVPSRFSGSGSGTDFTLTISSLQPEDFATYYCQQQYTLPPTFGGGTKVEIK: 161

Below: the item to evaluate.
get_value(item= C-66 (antibody, V domains shown, human IgG1) VH: QLQLQESGPGLVKPSETLSLTCTVSGGSISSSSYYWGWIRQPPGKGLEWIGSIYYSGSTYYNPSLKSRVTISVDTSKNQFSLKLSSVTAADTAVYYCAREVGYPYGMDVWGQGTTVTVSS VL: DIQLTQSPSSLSASVGDRVTITCQASQDISNFLNWYQQKPGKAPKLLIYDASNLETGVPSRFSGSGSGTDFTFTISSLQPEDIATYYCQQYSDLPTFGGGTKVEIK , readout=Monocyte MFI) returns 107
